Here, each record is paired with measured DC50 data.
# SYSTEM UNDER TEST: SHP2 protein (Homo sapiens, UniProt Q06124)
# Sequence (Q06124 1-593): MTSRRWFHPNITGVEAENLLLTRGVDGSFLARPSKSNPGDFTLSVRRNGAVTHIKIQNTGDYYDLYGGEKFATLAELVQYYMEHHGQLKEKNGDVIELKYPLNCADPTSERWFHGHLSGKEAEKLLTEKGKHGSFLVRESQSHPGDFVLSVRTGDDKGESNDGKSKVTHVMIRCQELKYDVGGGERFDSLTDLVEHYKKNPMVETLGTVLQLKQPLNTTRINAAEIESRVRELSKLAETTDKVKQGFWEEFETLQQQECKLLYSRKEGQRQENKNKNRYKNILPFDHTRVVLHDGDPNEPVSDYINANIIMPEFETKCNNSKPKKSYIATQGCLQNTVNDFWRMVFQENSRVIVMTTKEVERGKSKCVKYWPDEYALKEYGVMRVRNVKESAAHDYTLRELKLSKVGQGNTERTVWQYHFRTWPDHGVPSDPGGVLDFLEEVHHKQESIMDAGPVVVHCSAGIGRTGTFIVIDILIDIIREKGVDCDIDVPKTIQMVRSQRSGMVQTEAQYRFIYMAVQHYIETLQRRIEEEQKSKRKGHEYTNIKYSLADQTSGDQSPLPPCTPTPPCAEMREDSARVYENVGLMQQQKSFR
# PROTOCOL NOTES: Degradation activity on SHP2 protein in MV-411 cells (Western blot, DC50)
# Format: cell-based
# Design: endogenous in cells
# TEST CONDITIONS: MV411 cells, 24 hours, read-out: Degradation activity for differenct cell lines MV411 (DC50)

Worked cases, DC50 given:
INSERT INTO assay_data (compound, result) VALUES
  ('CC1(N)CCN(c2cnc(Sc3cccc(NC(=O)CCCCCCCCN4CCN(c5ccc(C(=O)NCc6ccc7c(c6)CN(C6CCC(=O)NC6=O)C7=O)nn5)CC4C(F)(F)F)c3)cn2)CC1 (centres unmarked) [Compound 174]', '< 100 nM'),
  ('CC1(N)CCN(c2cnc(Sc3cccc(NC(=O)CCCCCCN4CC5(CCN(c6ccc(C(NCc7ccc8c(c7)CN(C7CCC(=O)NC7=O)C8=O)C(F)(F)F)nn6)C5)C4)c3)cn2)CC1 (centres unmarked) [Compound 193]', '> 1000 nM'),
  ('Cc1ncsc1-c1ccc([C@H](C)NC(=O)[C@@H]2C[C@@H](O)CN2C(=O)[C@@H](NC(=O)c2ccc(N3CCC4(CN(CCCCC(=O)Nc5cccc(Sc6cnc(N7CCC(C)(N)CC7)cn6)c5)C4)C3)nn2)C(C)(C)C)cc1 [Compound 144]', '100 to 1000 nM');

# query: DC50 of entry Cc1cc(N2CCC3(CN(CCCCCCC(=O)Nc4cccc(Sc5cnc(N6CCC(N)(CO)CC6)cn5)c4)C3)C2)cnc1C(=O)NCc1ccc2c(c1)CN(C1CCC(=O)NC1=O)C2=O (centres unmarked) [Compound 208]
< 100 nM

# query: DC50 of entry CC1(N)CCN(c2cnc(Sc3cccc(NC(=O)CCCCCCCCCCCNc4ccc(C(=O)NCc5ccc6c(c5)CN(C5CCC(=O)NC5=O)C6=O)nn4)c3)cn2)CC1 (centres unmarked) [Compound 195]
100 to 1000 nM

# query: DC50 of entry CC1(N)CCN(c2cnc(Sc3cccc(NC(=O)CCCCCCN4CC5(CCN(c6ccc(C(=O)NCc7ccc8c(c7)CN(C7CCC(=O)NC7=O)C8=O)nn6)C5)C4)c3)cn2)CC1 (centres unmarked) [Compound 110]
< 100 nM

# query: DC50 of entry CC1(N)CCN(c2cnc(Sc3cccc(NC(=O)/C=C/C(=O)N4CC5(CCN(CCCCCCC(=O)NCc6ccc7c(c6)CN(C6CCC(=O)NC6=O)C7=O)C5)C4)c3)cn2)CC1 (centres unmarked) [Compound 150]
> 1000 nM

# query: DC50 of entry Cc1ncsc1-c1ccc([C@H](C)NC(=O)[C@@H]2C[C@@H](O)CN2C(=O)[C@@H](NC(=O)/C=C/C(=O)N2CCC3(CN(CCCCCCC(=O)Nc4cccc(Sc5cnc(N6CCC(C)(N)CC6)cn5)c4)C3)C2)C(C)(C)C)cc1 [Compound 116]
> 1000 nM
